- assay_explanation: Solubility in 10 mM phosphate buffer containing 10 to 40% ethylene glycol (Test Example 1)
- Format: physicochemical
- condition_notes: aqueous with cosolvent or surfactant or cyclodextrin, Ethylene glycol (EG) 40%; 10 mM phosphate buffer; read-out: Solubility of 1 mg/mL gPTX
measured_property: solubility

INSERT INTO measurements (compound, measurement) VALUES
  ('CC(=O)O[C@H]1C(=O)[C@@]2(C)C([C@H](OC(=O)c3ccccc3)[C@@]3(O)CC1=C(C)C(OC(=O)[C@H](O)[C@@H](NC(=O)c1ccccc1)c1ccccc1)C3)[C@]1(OC(C)=O)CO[C@@H]1C[C@H]2OC(=O)COC1OC(CO)C(O)C(O)C1O (stereo partly shown)', '> 1000 µg/mL');

----------
- assay_explanation: Solubility in mixed solvent Cremophor EL:ethanol:PBS (pH 7.4) 12:12:76 (Test Example 1)
- Assay type: physicochemical
- condition_notes: Cremophor EL:ethanol:PBS 12:12:76 mixed solvent, pH 7.4, aqueous with cosolvent or surfactant or cyclodextrin, Concentration 30 mg/ml; ethanol, Cremophor EL, PBS pH 7.4 (12:12:76)
- Protocol: Powdery gPTX and paclitaxel (hereinbelow, referred to as PTX in the Examples) produced by the method disclosed in NPL 1 were individually weighed in predetermined amounts, followed by addition of ethanol (120 μL) and mixing using a vortex. Cremophor® EL (available from Wako Pure Chemical Industries. Ltd.) (120 μL) was further mixed with each solution liquid, and then PBS (pH 7.4, 760 μL) was mixed. The solubility of each of the gPTX and PTX was confirmed.
measured_property: solubility

INSERT INTO assay_data (molecule, measurement) VALUES
  ('CC(=O)O[C@H]1C(=O)[C@@]2(C)C([C@H](OC(=O)c3ccccc3)[C@@]3(O)CC1=C(C)C(OC(=O)[C@H](O)[C@@H](NC(=O)c1ccccc1)c1ccccc1)C3)[C@]1(OC(C)=O)CO[C@@H]1C[C@H]2OC(=O)COC1OC(CO)C(O)C(O)C1O (stereo partly shown)', '< 30 mg/mL');

----------
- assay_explanation: Solubility in mixed solvent Cremophor EL:ethanol:PBS (pH 7.4) 12:12:76 (Test Example 1)
- Assay type: physicochemical
- condition_notes: Cremophor EL:ethanol:PBS 12:12:76 mixed solvent, pH 7.4, aqueous with cosolvent or surfactant or cyclodextrin, Concentration 3 mg/ml; ethanol, Cremophor EL, PBS pH 7.4 (12:12:76)
measured_property: solubility

INSERT INTO results (compound, measurement) VALUES
  ('CC(=O)O[C@H]1C(=O)[C@@]2(C)[C@H]([C@H](OC(=O)c3ccccc3)[C@]3(O)C[C@H](OC(=O)[C@H](O)[C@@H](NC(=O)c4ccccc4)c4ccccc4)C(C)=C1C3(C)C)[C@]1(OC(C)=O)CO[C@@H]1C[C@@H]2O [PTX, paclitaxel]', '< 3000 µg/mL');

----------
- assay_explanation: Solubility in mixed solvent Cremophor EL:ethanol:PBS (pH 7.4) 12:12:76 (Test Example 1)
- Type: physicochemical
- condition_notes: Cremophor EL:ethanol:PBS 12:12:76 mixed solvent, pH 7.4, aqueous with cosolvent or surfactant or cyclodextrin, Concentration 20 mg/ml; ethanol, Cremophor EL, PBS pH 7.4 (12:12:76)
measured_property: solubility

INSERT INTO assay_data (molecule, measurement) VALUES
  ('CC(=O)O[C@H]1C(=O)[C@@]2(C)C([C@H](OC(=O)c3ccccc3)[C@@]3(O)CC1=C(C)C(OC(=O)[C@H](O)[C@@H](NC(=O)c1ccccc1)c1ccccc1)C3)[C@]1(OC(C)=O)CO[C@@H]1C[C@H]2OC(=O)COC1OC(CO)C(O)C(O)C1O (some centres unmarked)', '> 20 mg/mL'),
  ('CC(=O)O[C@H]1C(=O)[C@@]2(C)[C@H]([C@H](OC(=O)c3ccccc3)[C@]3(O)C[C@H](OC(=O)[C@H](O)[C@@H](NC(=O)c4ccccc4)c4ccccc4)C(C)=C1C3(C)C)[C@]1(OC(C)=O)CO[C@@H]1C[C@@H]2O', '< 3 mg/mL');

----------
- assay_explanation: Solubility in 10 mM phosphate buffer containing 10 to 40% ethylene glycol (Test Example 1)
- Type: physicochemical
- condition_notes: aqueous with cosolvent or surfactant or cyclodextrin, Ethylene glycol (EG) 10%; 10 mM phosphate buffer; read-out: Solubility of 1 mg/mL gPTX
measured_property: solubility

INSERT INTO measurements (compound, measurement) VALUES
  ('CC(=O)O[C@H]1C(=O)[C@@]2(C)C([C@H](OC(=O)c3ccccc3)[C@@]3(O)CC1=C(C)C(OC(=O)[C@H](O)[C@@H](NC(=O)c1ccccc1)c1ccccc1)C3)[C@]1(OC(C)=O)CO[C@@H]1C[C@H]2OC(=O)COC1OC(CO)C(O)C(O)C1O (stereo partly shown)', '< 1000 µg/mL');

----------
- assay_explanation: Solubility in mixed solvent Cremophor EL:ethanol:PBS (pH 7.4) 12:12:76 (Test Example 1)
- Type: physicochemical
- condition_notes: Cremophor EL:ethanol:PBS 12:12:76 mixed solvent, pH 7.4, aqueous with cosolvent or surfactant or cyclodextrin, Concentration 2 mg/ml; ethanol, Cremophor EL, PBS pH 7.4 (12:12:76)
measured_property: solubility

INSERT INTO measurements (compound, measurement) VALUES
  ('CC(=O)O[C@H]1C(=O)[C@@]2(C)[C@H]([C@H](OC(=O)c3ccccc3)[C@]3(O)C[C@H](OC(=O)[C@H](O)[C@@H](NC(=O)c4ccccc4)c4ccccc4)C(C)=C1C3(C)C)[C@]1(OC(C)=O)CO[C@@H]1C[C@@H]2O [PTX, paclitaxel]', '> 2 mg/mL'),
  ('CC(=O)O[C@H]1C(=O)[C@@]2(C)C([C@H](OC(=O)c3ccccc3)[C@@]3(O)CC1=C(C)C(OC(=O)[C@H](O)[C@@H](NC(=O)c1ccccc1)c1ccccc1)C3)[C@]1(OC(C)=O)CO[C@@H]1C[C@H]2OC(=O)COC1OC(CO)C(O)C(O)C1O (stereo partly drawn) [gPTX, 7-α-glucosyloxyacetylpaclitaxel]', '> 20 mg/mL');

----------
- assay_explanation: Solubility in 10 mM phosphate buffer containing 10 to 40% ethylene glycol (Test Example 1)
- Assay type: physicochemical
- condition_notes: aqueous with cosolvent or surfactant or cyclodextrin, PBS containing 40% (volume) ethylene glycol; read-out: Solubility of gPTX
measured_property: solubility

INSERT INTO results (compound, measurement) VALUES
  ('CC(=O)O[C@H]1C(=O)[C@@]2(C)C([C@H](OC(=O)c3ccccc3)[C@@]3(O)CC1=C(C)C(OC(=O)[C@H](O)[C@@H](NC(=O)c1ccccc1)c1ccccc1)C3)[C@]1(OC(C)=O)CO[C@@H]1C[C@H]2OC(=O)COC1OC(CO)C(O)C(O)C1O (stereo partly shown)', '~1000 µg/mL');

Source: patent US10682330B2
